# assayed-target: T1, recombinant SARS-CoV-2 Spike RBD domain, EG.5 variant (SARS-CoV-2)
# T1 construct: also called RBD EG.5.1 variant
# test-protocol: competition ELISA, blocking of RBD binding to ACE2 ectodomain
A collection of binders and their measured Blocking %
reported-property: Blocking %

{"binder": "SPK002M A2 antibody (antibody, human IgG1, kappa, V domains shown) VH: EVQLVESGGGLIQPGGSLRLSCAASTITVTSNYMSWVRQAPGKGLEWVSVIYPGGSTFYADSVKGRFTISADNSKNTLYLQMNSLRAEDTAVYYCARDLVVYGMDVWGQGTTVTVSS VL: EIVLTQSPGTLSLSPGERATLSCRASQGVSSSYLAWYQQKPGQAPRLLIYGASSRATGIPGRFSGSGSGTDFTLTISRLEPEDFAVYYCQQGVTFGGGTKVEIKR", "readout-value": "88%"}
{"binder": "SPK002M A1 antibody (antibody, human IgG1, kappa, V domains shown) VH: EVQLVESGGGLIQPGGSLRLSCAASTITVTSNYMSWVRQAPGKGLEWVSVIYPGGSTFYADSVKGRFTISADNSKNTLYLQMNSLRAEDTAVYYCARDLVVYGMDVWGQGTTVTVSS VL: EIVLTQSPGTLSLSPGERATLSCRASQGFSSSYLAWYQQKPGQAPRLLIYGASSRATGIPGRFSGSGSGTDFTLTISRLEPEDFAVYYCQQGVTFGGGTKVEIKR", "readout-value": "90%"}
{"binder": "SPK002M C2 antibody (antibody, human IgG1, kappa, V domains shown) VH: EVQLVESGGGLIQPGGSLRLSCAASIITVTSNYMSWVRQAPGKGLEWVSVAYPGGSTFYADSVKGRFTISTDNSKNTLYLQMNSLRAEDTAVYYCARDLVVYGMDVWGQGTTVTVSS VL: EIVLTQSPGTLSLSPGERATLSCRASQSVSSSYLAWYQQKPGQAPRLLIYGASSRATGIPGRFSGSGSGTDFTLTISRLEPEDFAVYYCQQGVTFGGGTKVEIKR", "readout-value": "89%"}
